Where do the numbers come from? From patent US20220340678A1.

target or test system: T1, histidine-tagged human uPAR (Sino#10925-H08H) (human, UniProt Q03405 23-303)
T1 construct: also called uPAR-His
test method notes: BLI (Octet), antibody on anti-human Fc sensor, uPAR from 50 nM;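 also: antibodies captured at 10 µg/mL on anti-human Fc biosensors, with uPAR as analyte in a twofold dilution series from 50 nM downward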
property name: koff

binder="M43-Chimeric (antibody, V domains shown) VH: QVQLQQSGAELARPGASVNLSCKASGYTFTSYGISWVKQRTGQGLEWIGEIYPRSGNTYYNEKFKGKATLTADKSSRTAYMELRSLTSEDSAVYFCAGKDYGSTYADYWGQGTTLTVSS VL: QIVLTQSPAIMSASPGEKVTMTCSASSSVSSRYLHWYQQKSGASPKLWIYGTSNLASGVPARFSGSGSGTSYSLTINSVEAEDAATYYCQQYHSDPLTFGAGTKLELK" property_name=koff reported_value="0.00606 s⁻¹"
binder="M43-H1bm5/L4 (antibody, V domains shown, also called humanized M43) VH: QVQLVQSGAEVAKPGASVNLNCKASGYTFTSYGISWVRQRTGQGLEWIGEIYPRSGNTYYNEKFKGKVTLTTDKSTRTAYMELRSLTSEDTAVYYCAGKDYGSTYADYWGQGTTLTVSS VL: QIVLTQSPATLSASPGERVTMTCSASSSVSSRYLHWYQQKSGASPRLWIYGTSNLASGVPARFSGSGPGTSYTLTISSVEPEDAATYYCQQYHSDPLTFGQGTKLELKT" property_name=koff reported_value="0.00658 s⁻¹"
binder="M8-H3/L2B2 (antibody, V domains shown, also called humanized M8) VH: QIQLVQSGSELKKPGASVKISCKASGTTFTDYGMNWVKQSPGKGLKWMGWINTNTGEPTYAEDFKGRFVFSLDTSVSTAYLQISSLKAEDTATYFCAHYSFDYWGQGTLLTVSS VL: DIQMTQSPSSLSASVGDTVTITCRTSENIYSNLAWYQQKPGKSPQLLVYAATNLADGVPSRFSGSGSGTQYTLKISSLQPEDFATYYCQHFWGTPWTFGGGTKVEIKT" property_name=koff reported_value="0.000427 s⁻¹"
